Target: GLUT3 (Homo sapiens)
Sequence (P11169 1-496): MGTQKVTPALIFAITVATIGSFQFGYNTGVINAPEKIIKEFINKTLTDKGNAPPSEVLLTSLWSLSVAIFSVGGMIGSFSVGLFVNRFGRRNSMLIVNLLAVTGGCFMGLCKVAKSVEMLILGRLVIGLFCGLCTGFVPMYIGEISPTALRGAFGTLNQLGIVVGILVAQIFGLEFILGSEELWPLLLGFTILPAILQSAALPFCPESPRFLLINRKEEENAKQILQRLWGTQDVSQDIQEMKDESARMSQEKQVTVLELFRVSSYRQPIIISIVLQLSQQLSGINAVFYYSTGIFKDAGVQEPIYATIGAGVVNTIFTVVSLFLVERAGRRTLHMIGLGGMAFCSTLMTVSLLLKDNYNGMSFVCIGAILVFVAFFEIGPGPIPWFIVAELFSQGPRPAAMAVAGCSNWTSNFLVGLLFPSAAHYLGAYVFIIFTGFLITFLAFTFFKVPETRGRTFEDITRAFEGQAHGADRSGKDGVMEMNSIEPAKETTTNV
Assay: GLUT3 transporter activity assay (2-DG uptake) in DLD-1-GLUT1-/- cells
Conditions: DLD-1-GLUT1-/- cell line; read-out: GLUT3 inhibitory activity (IC50)
pIC50: −log10 of the molar value.
measurementKind: pIC50

Take a look at these entries with their results.
Cc1ccc(CCNC(=O)c2cccc(N3C(=O)NC4CC3(C)Oc3c(OCc5ccccc5)cccc34)c2)cc1 (centres unmarked); ≥ 6.52
Cc1ccc(CCNC(=O)c2cccc(N3C(=O)NC4CC3(C)Oc3c(OCc5ccncc5)cccc34)c2)cc1 (centres unmarked); 6.00 to 6.52
Cc1ccc(CCNC(=O)c2cccc(N3C(=O)NC4CC3(C)Oc3c(OCc5ccco5)cccc34)c2)cc1 (centres unmarked); 6.00 to 6.52
Cc1ccc(CCNC(=O)c2cccc(N3C(=O)NC4CC3(C)Oc3c(OCc5ccc(C#N)cc5)cccc34)c2)cc1 (centres unmarked); ≥ 6.52
Cc1ccc(CCNC(=O)c2cccc(N3C(=O)NC4CC3(C)Oc3c(OCc5ccccc5C)cccc34)c2)cc1 (centres unmarked); 5.40 to 6.00

Now look at this entry.
**Query** Specify pIC50 for Cc1ccc(OCCNC(=O)c2cccc(N3C(=O)NC4CC3(C)Oc3c(OCc5ccccc5)cccc34)c2)cc1 (centres unmarked) and stop.
**Result** 6.00 to 6.52

###

Molecular target: UniProt P11166
Sequence (P11166 whole entry): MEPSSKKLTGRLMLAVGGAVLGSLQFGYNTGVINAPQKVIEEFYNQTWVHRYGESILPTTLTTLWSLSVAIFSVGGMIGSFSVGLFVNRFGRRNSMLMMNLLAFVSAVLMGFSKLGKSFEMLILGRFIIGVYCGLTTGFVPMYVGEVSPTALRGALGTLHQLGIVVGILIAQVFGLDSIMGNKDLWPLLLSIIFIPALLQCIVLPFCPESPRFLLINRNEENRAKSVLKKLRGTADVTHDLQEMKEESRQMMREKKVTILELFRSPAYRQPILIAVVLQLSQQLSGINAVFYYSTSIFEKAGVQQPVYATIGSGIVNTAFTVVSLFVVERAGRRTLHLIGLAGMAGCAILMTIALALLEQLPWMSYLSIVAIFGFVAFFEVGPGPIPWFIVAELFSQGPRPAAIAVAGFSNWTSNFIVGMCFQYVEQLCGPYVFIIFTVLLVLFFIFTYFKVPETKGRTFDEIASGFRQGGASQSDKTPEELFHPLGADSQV
Test: GLUT1 transporter activity assay (2-DG uptake) in DLD1 cells
Settings: DLD1 cell line; read-out: GLUT1 inhibitory activity (IC50)
The compounds listed here are annotated with their IC50.

Please review the following examples before continuing.
Cc1ccc(CCNC(=O)c2cccc(N3C(=O)NC4CC3(C)Oc3c(OCc5ccccc5C)cccc34)c2)cc1 (stereo not shown); 1000 to 4000 nM
Cc1ccc(CCNC(=O)c2cccc(N3C(=O)NC4CC3(C)Oc3c(OCC5CC5)cccc34)c2)cc1 (stereo not shown); ≤ 300 nM
CC12CC(NC(=O)N1c1cccc(C(=O)NCc3ccccc3)c1)c1cccc(OCc3ccccc3)c1O2 (stereo not shown); 10000 to 25000 nM
Cc1ccc(CCNC(=O)c2cccc(N3C(=O)NC4CC3(C)Oc3c(OCc5ccccc5)cccc34)c2)cc1 (stereo not shown); ≤ 300 nM
Cc1ccc(CCNC(=O)c2cccc(N3C(=O)NC4CC3(C)Oc3c(OCc5nccn5C)cccc34)c2)cc1 (stereo not shown); 1000 to 4000 nM

**Query** State recorded IC50 with UniProt P11166, entry Cc1ccc(CCNC(=O)c2cccc(N3C(=O)NC4CC3(C)Oc3c(OCc5cccnc5)cccc34)c2)cc1 (stereo not shown) , no comment.
**Result** ≤ 300 nM

**Query** // output IC50; input Cc1ccc(CCNC(=O)c2cccc(N3C(=O)NC4CC3(C)Oc3c(OCc5ccco5)cccc34)c2)cc1 (stereo not shown) ; system UniProt P11166
**Result** 300 to 1000 nM
